Measured values drawn from the Human Domainome abundance scans (Beltran et al. 2025) for this set.

B1: MEF2-activating motif and SAP domain-containing transcriptional regulator, residues 170 to 204; numbered along this chain, Q6ZN01 (parent)
chain: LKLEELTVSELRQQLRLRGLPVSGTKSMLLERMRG

# Variants of: B1
# test.name: abundance fitness (aPCA) (normalised: wild type 0, dead -1); higher = more abundant; growth selection in yeast, the domain comes from the species named
# run.parameters: Homo sapiens
# label = met if abundance fitness >= -0.6 else not met

variant.descriptor: S9R
classification: met
//
variant.descriptor: R34I
classification: met
//
variant.descriptor: V8D
classification: met
//
variant.descriptor: R16M
classification: met
//
variant.descriptor: R32N
classification: met
//
variant.descriptor: T7D
classification: met
//
variant.descriptor: Q13G
classification: met
//
variant.descriptor: E31W
classification: not met
//
variant.descriptor: Q13A
classification: met
//
variant.descriptor: S27A
classification: met
//
variant.descriptor: R16E
classification: met
//
variant.descriptor: Q14P
classification: not met
//
variant.descriptor: E4G
classification: met
//
variant.descriptor: L17P
classification: not met
//
variant.descriptor: T25S
classification: met
//
variant.descriptor: V22A
classification: met
//
variant.descriptor: L20F
classification: met
//
variant.descriptor: L11I
classification: met
//
variant.descriptor: G24W
classification: met
//
variant.descriptor: S27W
classification: met
//
variant.descriptor: L6E
classification: met
//
variant.descriptor: T25E
classification: met
//
variant.descriptor: R18T
classification: met
//
variant.descriptor: L20I
classification: not met
//
variant.descriptor: L15W
classification: not met
//
variant.descriptor: P21Y
classification: not met
//
variant.descriptor: G35R
classification: met
//
variant.descriptor: Q13R
classification: met
//
variant.descriptor: E10C
classification: not met
//
variant.descriptor: S9K
classification: met
//
variant.descriptor: T7V
classification: not met
//
variant.descriptor: Q14D
classification: met
